TEST NAME: NCI Yeast Anticancer Drug Screen. Data for the cln2 rad14 strain (AID 165);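 note: 0% = growth equal to vehicle treated cultures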
ASSAY CONTEXT: S. cerevisiae cln2 rad14 strain, at 50.0 µM, stronger effect = higher value
Compounds without any hit were thinned out: in the full panel of roughly 79,000, 15% have a hit.
READOUT KIND: growth inhibition (%)
Return type: number; implicit unit %.

Below, each entry is followed by its recorded growth inhibition result.
MOLECULE | UNIT LABEL | VAL
CC(=O)[O-].O=S(=O)(Nc1ncccn1)c1ccc(N=Cc2ccccc2O)cc1.O=S(=O)(Nc1ncccn1)c1ccc(N=Cc2ccccc2O)cc1.[Co+2] | % | 27.7
Cc1cn2cc(-c3cccs3)nc2s1 | % | 18.6
CC(NC(=O)C(CC(=O)OCc1ccccc1)NC(=O)OCc1ccccc1)c1ccccc1 (stereo unspecified) | % | -21.6

# context switch: different molecule, same growth inhibition
So what's the measured growth inhibition for this one? Clc1ccc(CSc2cnnc(Cl)c2SCc2ccc(Cl)cc2)cc1
22.8

* * *

TEST NAME: NCI Yeast Anticancer Drug Screen. Data for the rad50 strain (AID 155);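 note: 0% = growth of vehicle-only cultures of the same strain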
ASSAY CONTEXT: S. cerevisiae rad50 strain growth inhibition; at 50.0 µM; stronger effect = higher value
About 79,000 compounds went through this panel and 15% of them were active in at least one assay; those are over-represented in the sample as a whole.
READOUT KIND: growth inhibition (%)
Return type: number; implicit unit %.

COMPOUND | VAL
O=C(O)C1=C(C(=O)O)C2CCC1C2 | -25.1
COC(=O)CCCCl | -51
O=C(Nc1nc2ccc([N+](=O)[O-])cc2s1)C(=O)C(C(=O)c1ccccc1F)C1OC(=O)c2ccccc21 (centres undefined) | 29.8
Oc1ccc(Br)cc1C1Nc2ccccc2S1 (centres undefined) | 0.65
CC[n+]1c(-c2ccccc2)c2cc(NCCCN)ccc2c2ccc(N)cc21 | 33

# context switch: different compound, same growth inhibition
So what's the measured growth inhibition for this one? N#Cc1ccc(Br)cc1
7.95

* * *

TEST NAME: NCI Yeast Anticancer Drug Screen. Data for the mec2-1 strain (AID 157)
ASSAY CONTEXT: S. cerevisiae mec2-1 strain, at 50.0 µM, stronger effect = higher value
The panel holds about 79,000 compounds, 15% with a hit somewhere; the sample as a whole holds those more often.
Documented growth inhibition across a set of compounds
Return type: number; implicit unit %.

COMPOUND | growth inhibition, %
O=[N+]([O-])c1ccc(SC2=NCCCN2C2CCCCC2)c(Cl)c1 | -13.9

So what's the measured growth inhibition for this one? N=C(N)c1nc2ccccc2s1
-13.5

So what's the measured growth inhibition for this one? COc1cc(CCCCC(=O)O)cc(Br)c1OC
-1.95

So what's the measured growth inhibition for this one? O=C(CCSc1ncnc2nc[nH]c12)c1ccccc1
20.4

* * *

TEST NAME: NCI Yeast Anticancer Drug Screen. Data for the cln2 rad14 strain (AID 165);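 note: 0% = growth equal to vehicle treated cultures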
ASSAY CONTEXT: S. cerevisiae cln2 rad14 strain, at 50.0 µM, stronger effect = higher value
About 79,000 compounds went through this panel and 15% of them were active in at least one assay; those are over-represented in the sample as a whole. Active and inactive are the calls of the source. Rule as the data show it: active = growth inhibition above about 70%; inactive = the rest.
READOUT KIND: growth inhibition

MOLECULE | growth inhibition
Cc1cc(C)c(/C=C\C(=O)c2ccccc2)c(C)c1 | -37.9% (inactive)

# context switch: different molecule, same growth inhibition
So what's the measured growth inhibition for this one? c1ccc(Sc2cc(Sc3ccccc3)c3cccccc2-3)cc1
-6.05% (inactive)

The measured values listed here are drawn from PubChem BioAssay (NCI).
